Assay: Inhibition of cupric ion-mediated amyloid beta (1 to 42) aggregation at 25 uM measured after 24 hrs by ThT fluorescence assay relative to control
inhibition values, listed per item

smiles.record: CCN(CCCCOc1ccc(-c2coc3cc(OCCCCN(CC)Cc4ccccc4OC)cc(O)c3c2=O)cc1)Cc1ccccc1OC
inhibition, %: 77.8
//
smiles.record: CCN(CCCOc1cc(O)c2c(=O)c3ccccc3sc2c1)Cc1ccccc1
inhibition, %: 70.9
//
smiles.record: CCN(CCCOc1cc(O)c2c(=O)c3ccccc3sc2c1)Cc1ccccc1OC
inhibition, %: 80
//
smiles.record: CCN(CCCCCCOc1cc(O)c2c(=O)c3ccccc3sc2c1)Cc1ccccc1OC
inhibition, %: 86.3
//
smiles.record: O=c1c2ccccc2sc2cc(O)cc(O)c12
inhibition, %: 31.4
